B1: glmS ribozyme (parent)
chain: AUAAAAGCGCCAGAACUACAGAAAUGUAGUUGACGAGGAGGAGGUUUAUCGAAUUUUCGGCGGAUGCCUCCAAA

- Variants of: B1
- protocol description: self-cleavage kobs at 2500 uM GlcN6P; higher = faster cleavage; RNA array
- condition label: with glucosamine-6-phosphate
This sample holds only a part of the variants without activity.
recorded metric: self-cleavage kobs at 2500 uM GlcN6P

### Prompt Any idea what self-cleavage kobs at 2500 uM GlcN6P was measured for C34G G43C A53U U54A ?
### Response < 1e-05 s⁻¹

### Prompt Which self-cleavage kobs at 2500 uM GlcN6P reading was recorded for the variant A12U A36G A52U C71G ?
### Response < 1e-05 s⁻¹

### Prompt Need self-cleavage kobs at 2500 uM GlcN6P, item C8G U46C A53C
### Response < 1e-05 s⁻¹

### Prompt Please look up its self-cleavage kobs at 2500 uM GlcN6P: C34A G59U
### Response < 1e-05 s⁻¹

### Prompt Any idea what self-cleavage kobs at 2500 uM GlcN6P was measured for A15G A39U G40A C61A ?
### Response < 1e-05 s⁻¹

### Prompt Look up self-cleavage kobs at 2500 uM GlcN6P for this variant: A12C A36G A42U U45A G51U
### Response < 1e-05 s⁻¹

### Prompt Any idea what self-cleavage kobs at 2500 uM GlcN6P was measured for C16A G38C G40C G44U C67A U69C ?
### Response < 1e-05 s⁻¹

### Prompt Query (variant): A6U C8U ; field requested: self-cleavage kobs at 2500 uM GlcN6P
### Response < 1e-05 s⁻¹

### Prompt Return reported self-cleavage kobs at 2500 uM GlcN6P; argument: C10G G32U G62U U65G
### Response < 1e-05 s⁻¹

### Prompt Field request: self-cleavage kobs at 2500 uM GlcN6P | item: A12C U31C U54A C67A
### Response 6.33e-05 s⁻¹

### Prompt Need self-cleavage kobs at 2500 uM GlcN6P of A6G U30A A39G , thanks.
### Response 8.54e-05 s⁻¹

### Prompt # lookup: self-cleavage kobs at 2500 uM GlcN6P of A1C U57C
### Response 9.88e-05 s⁻¹

### Prompt Report self-cleavage kobs at 2500 uM GlcN6P for A14G A52C please.
### Response 1.73e-05 s⁻¹

### Prompt Need self-cleavage kobs at 2500 uM GlcN6P, item C19A A42C
### Response < 1e-05 s⁻¹

### Prompt Sample G43U G63C — what was its self-cleavage kobs at 2500 uM GlcN6P?
### Response < 1e-05 s⁻¹

### Prompt self-cleavage kobs at 2500 uM GlcN6P for C16G G29C A53U ?
### Response 0.00684 s⁻¹

### Prompt So what's the measured self-cleavage kobs at 2500 uM GlcN6P for this one? U30C C68A
### Response 3.62e-05 s⁻¹

### Prompt Dear colleague, I am looking for the recorded self-cleavage kobs at 2500 uM GlcN6P of the following variant: U56A U69G
### Response 0.000127 s⁻¹

### Prompt I am curious: what self-cleavage kobs at 2500 uM GlcN6P value has been reported for A6U A36C C67G ?
### Response < 1e-05 s⁻¹

### Prompt Quick one: self-cleavage kobs at 2500 uM GlcN6P for G7A C34U A36C ?
### Response < 1e-05 s⁻¹

### Prompt Endpoint output: self-cleavage kobs at 2500 uM GlcN6P of A6G G38A C50G . Value?
### Response 0.000113 s⁻¹

### Prompt Please look up its self-cleavage kobs at 2500 uM GlcN6P: A14U U56A G63A
### Response < 1e-05 s⁻¹

### Prompt Could you tell me which self-cleavage kobs at 2500 uM GlcN6P is on file for G7A A14G G38A ?
### Response < 1e-05 s⁻¹

### Prompt Which value of self-cleavage kobs at 2500 uM GlcN6P has been reported for G29U G38A in the records?
### Response < 1e-05 s⁻¹

### Prompt I am curious: what self-cleavage kobs at 2500 uM GlcN6P value has been reported for G13A C71U ?
### Response 0.000358 s⁻¹

### Prompt What does the data say about its self-cleavage kobs at 2500 uM GlcN6P? Entry: G29U C58A C68A
### Response 3.43e-05 s⁻¹

### Prompt Requested field: self-cleavage kobs at 2500 uM GlcN6P. Item: A6C C8A U31C
### Response < 1e-05 s⁻¹

### Prompt Could you share which self-cleavage kobs at 2500 uM GlcN6P value was measured for C8A U31G ?
### Response < 1e-05 s⁻¹

### Prompt // returns reported self-cleavage kobs at 2500 uM GlcN6P for input G13C A36U
### Response < 1e-05 s⁻¹

### Prompt // returns reported self-cleavage kobs at 2500 uM GlcN6P for input A39G C67G C68G
### Response 7.78e-05 s⁻¹

### Prompt # self-cleavage kobs at 2500 uM GlcN6P lookup, item G40U U45G
### Response 0.000779 s⁻¹

### Prompt Bench note: what self-cleavage kobs at 2500 uM GlcN6P did C8A A42U G62U show?
### Response < 1e-05 s⁻¹

### Prompt // lookup self-cleavage kobs at 2500 uM GlcN6P for G7U G43C A53U A64G
### Response < 1e-05 s⁻¹

### Prompt Requested read-out: self-cleavage kobs at 2500 uM GlcN6P. Entry: A14C U55A C68A
### Response 6.41e-05 s⁻¹

### Prompt Query (variant): A12C A36G C71U ; field requested: self-cleavage kobs at 2500 uM GlcN6P
### Response < 1e-05 s⁻¹

### Prompt Recorded self-cleavage kobs at 2500 uM GlcN6P of C10A A12C U30A U31A , please.
### Response 5.52e-05 s⁻¹
